# EXPERIMENTAL PROTOCOL: clinical
# STATED CONDITIONS: human, in vivo, 5 mg, effective half-lives determined from R values

{"columns": ["COMPOUND", "half-life"],
 "data": [
  ["CCOC(=O)N[C@@H]1CC[C@@H]2[C@@H](C1)C[C@H]1C(=O)O[C@H](C)[C@H]1[C@H]2/C=C/c1ccc(-c2cccc(F)c2)cn1 [COMPOUND 1]", "59.8 to 141 h"]
]}

* * *

# EXPERIMENTAL PROTOCOL: clinical
# STATED CONDITIONS: human, in vivo, 5 mg, Tmax Median

{"columns": ["COMPOUND", "SCALE UNIT", "Tmax"],
 "data": [
  ["CCOC(=O)N[C@@H]1CC[C@@H]2[C@@H](C1)C[C@H]1C(=O)O[C@H](C)[C@H]1[C@H]2/C=C/c1ccc(-c2cccc(F)c2)cn1 [COMPOUND 1]", "h", 1]
]}
